tested on: UACC-62 melanoma; experiment: NCI-60 one-dose screen, 48 h; details: 10 µM unless noted
This is part of a sample that, as a whole, favours compounds with a hit. Of some 83,000 tested, about 20% had one in any assay. Calls of active or inactive are those of the source. Rule for the calls: active = growth percent below 10; inactive = the rest.
Labels: true (1) (active), false (0) (inactive)

[
  {
    "compound": "CCOC(=O)c1cn2c3c(cc(C)cc3c1=O)C(=O)/C(=C/c1ccccc1)C2",
    "class_name": "false (0)"
  },
  {
    "compound": "Nc1ncnc2c1c(-c1ccc(Oc3ccccc3)cc1)nn2C[C@@H]1SSC[C@@H]1O",
    "class_name": "true (1)"
  },
  {
    "compound": "C/C(=C\\c1ccc(OCC(=O)O)c(Cl)c1Cl)[N+](=O)[O-]",
    "class_name": "false (0)"
  },
  {
    "compound": "COc1ccc(CCNC2=CC(=O)CCC2)cc1OC",
    "class_name": "false (0)"
  },
  {
    "compound": "O=C(C1=Cc2cc3ccccc3n2Cc2cnnn21)c1ccccc1",
    "class_name": "false (0)"
  },
  {
    "compound": "CCC(C)/C(=C\\C#N)NCCCN/C(=C/C#N)C(C)CC (stereo not given)",
    "class_name": "false (0)"
  },
  {
    "compound": "CCC1=CCC[C@@]2(C)CCC[C@@]3(C)CCCC(C)(C)[C@]1([O-])[O+]32",
    "class_name": "false (0)"
  },
  {
    "compound": "Cc1nc2cncc(C#Cc3cncc(C(=O)Nc4ccc(CN5CCN(C)CC5)c(C(F)(F)F)c4)c3)c2nc1C",
    "class_name": "true (1)"
  },
  {
    "compound": "COc1ccc(-c2cc(-c3ccccc3)nc(SCCCC(=O)NO)n2)cc1OC",
    "class_name": "true (1)"
  },
  {
    "compound": "COc1ccc(/C=C2\\CN(Cc3cn(CCNc4ccnc5cc(Cl)ccc45)nn3)C/C(=C\\c3ccc(OC)c(OC)c3)C2=O)cc1OC",
    "class_name": "true (1)"
  },
  {
    "compound": "CC(C)(C)n1cc(-c2ccnc(NCCCNS(=O)(=O)c3ccc(Cl)cc3)c2)c(-c2cccc(O)c2)n1",
    "class_name": "true (1)"
  },
  {
    "compound": "C/C(=N/NC(=S)Nc1ccccc1)c1nc2ccc(Cl)cc2[nH]1",
    "class_name": "true (1)"
  },
  {
    "compound": "COc1ccc(-c2c(-c3cc(OC)c4c(c3)OCO4)noc2N)cc1",
    "class_name": "false (0)"
  },
  {
    "compound": "Cc1cc(N)n(S(=O)(=O)c2oc(-c3ccccc3)nc2C#N)n1",
    "class_name": "false (0)"
  },
  {
    "compound": "COc1ccc(C2C=C(c3ccc(N)cc3)N=C3SC=CN32)cc1OC (stereo not given)",
    "class_name": "false (0)"
  },
  {
    "compound": "O=C(Nc1cccc(-n2cc(-c3ccncc3)c(-c3ccc(Cl)c(O)c3)n2)c1)Nc1ccc(Cl)c(Cl)c1",
    "class_name": "false (0)"
  },
  {
    "compound": "CCCN=C1NC(=O)/C(=C/c2nc(-c3ccc(OC)cc3)n3ccccc23)S1",
    "class_name": "false (0)"
  },
  {
    "compound": "CCOC(=O)C1C(=O)C=C(c2ccc(OC)cc2)CC1c1sc(N(C)Cc2ccccc2)nc1Cl (stereo not given)",
    "class_name": "false (0)"
  },
  {
    "compound": "Fc1ccc(Nc2nc(NCCNc3ccnc4cc(Cl)ccc34)nc(N3CCOCC3)n2)cc1",
    "class_name": "false (0)"
  },
  {
    "compound": "O=[N+]([O-])c1ccc(-c2cn(-c3ccccc3)c(-c3ccccc3)n2)cc1",
    "class_name": "false (0)"
  }
]

====

system: HCT-116 colon; assay: NCI-60 one-dose screen, 48 h; details: 10 µM unless noted
This is part of a sample that, as a whole, favours compounds with a hit. Of some 83,000 tested, about 20% had one in any assay. The source made the active and inactive calls. The calls were made as follows: active = growth percent below 10; inactive = the rest.
Labels: y for active, n for inactive

[
  {
    "compound": "O=c1ccn(C2CC(O)C(O)C(CO)O2)c(=O)[nH]1 (stereo unspecified)",
    "class_name": "n"
  },
  {
    "compound": "S=C1CC(=S)NC(=S)N1",
    "class_name": "n"
  },
  {
    "compound": "CN(C)CC(C(=O)c1ccccc1)c1ccccc1 (stereo unspecified)",
    "class_name": "y"
  },
  {
    "compound": "O=S(=O)(c1ccc(OCCO)cc1)c1ccc(OCCO)cc1",
    "class_name": "n"
  },
  {
    "compound": "C=C1CCC2C3(C)COC(C)(C)OC3CCC2(C)C1C/C=C1/C(=O)OCC1Oc1ccccc1OC (stereo unspecified)",
    "class_name": "n"
  },
  {
    "compound": "CCCCCCCCCCCCCCCCCCNC(=O)[C@H]1CSC(c2ccc(OC)cc2O)N1 (stereo partly specified)",
    "class_name": "n"
  }
]

====

test system: SW-620 colon; assay: NCI-60 one-dose screen, 48 h; settings: 10 µM unless noted
This is part of a sample that, as a whole, favours compounds with a hit. Of some 83,000 tested, about 20% had one in any assay. Activity calls are given as the source filed them. The calls were made as follows: active = growth percent below 10; inactive = the rest.
Labels: yes (active), no (inactive)

[
  {
    "compound": "CN1C(=O)N(C)C2C1NN=c1s/c(=C\\c3cccnc3)c(=O)n12 (stereo not given)",
    "target_system": "SW-620 colon",
    "class_name": "no"
  },
  {
    "compound": "COc1ccc(Nc2ncccc2C(=O)NCc2cn(Cc3cccc(Oc4ccccc4)c3)nn2)cc1",
    "target_system": "SW-620 colon",
    "class_name": "no"
  },
  {
    "compound": "COc1ccc(/C=C2\\CN(Cc3cn(CCNc4ccnc5cc(Cl)ccc45)nn3)C/C(=C\\c3ccc(OC)c(OC)c3)C2=O)cc1OC",
    "target_system": "SW-620 colon",
    "class_name": "yes"
  },
  {
    "compound": "O=C1NN(C(=O)c2ccc(Cl)cc2)C(c2ccccc2)=N/C1=C\\c1cn(-c2ccccc2)nc1-c1ccccc1",
    "target_system": "SW-620 colon",
    "class_name": "no"
  },
  {
    "compound": "COc1cc(NC(N)=NCCC(C)(C)Oc2ccc(C(F)(F)F)cc2)ncc1C#N",
    "target_system": "SW-620 colon",
    "class_name": "yes"
  },
  {
    "compound": "CC(O)CN1CCCCC1 (stereo not given)",
    "target_system": "SW-620 colon",
    "class_name": "no"
  },
  {
    "compound": "COc1cc(NCCCCCN)c2ncccc2c1",
    "target_system": "SW-620 colon",
    "class_name": "no"
  },
  {
    "compound": "O=C(Nc1ccncc1)C(=O)c1cn(S(=O)(=O)c2ccccc2F)c2ccccc12",
    "target_system": "SW-620 colon",
    "class_name": "no"
  },
  {
    "compound": "Cc1c(C(=N)C(C#N)C#N)c(=N)oc2c1ccc1ccccc12",
    "target_system": "SW-620 colon",
    "class_name": "no"
  },
  {
    "compound": "CCN(CC)CCC(CNc1ccnc2cc(Cl)ccc12)c1ccc(Cl)cc1 (stereo not given)",
    "target_system": "SW-620 colon",
    "class_name": "yes"
  },
  {
    "compound": "COc1ccc(NC(=O)c2cc(OC)c(OC)c(OC)c2)cc1O",
    "target_system": "SW-620 colon",
    "class_name": "no"
  },
  {
    "compound": "O=C(c1ccccc1)c1c(/C=C/c2ccccc2)c2ccccc2[nH]c1=O",
    "target_system": "SW-620 colon",
    "class_name": "no"
  },
  {
    "compound": "CCCCCCCCC(C)OC(=O)c1nn(C(C)=O)c2ccccc12 (stereo not given)",
    "target_system": "SW-620 colon",
    "class_name": "no"
  },
  {
    "compound": "CCN1CCN(CC(=O)N2c3cccc4cccc(c34)N(C(=O)CN3CCN(CC)CC3)C2c2cn(-c3ccccc3)nc2-c2cccc([N+](=O)[O-])c2)CC1",
    "target_system": "SW-620 colon",
    "class_name": "yes"
  },
  {
    "compound": "O=C(NNC(=O)N1c2ccccc2C=Cc2ccccc21)c1ccc2ccccc2c1",
    "target_system": "SW-620 colon",
    "class_name": "no"
  },
  {
    "compound": "O=C(CSc1nc2ccccc2[nH]1)Nc1ccc(-c2nc3ccccc3s2)c(Cl)c1",
    "target_system": "SW-620 colon",
    "class_name": "no"
  },
  {
    "compound": "COc1cc2c(cc1OCCCCCn1c3ccccc3c3ccccc31)N=C[C@@H]1CCCN1C2=O",
    "target_system": "SW-620 colon",
    "class_name": "yes"
  },
  {
    "compound": "Cc1ccc(-c2nc(C(Cl)Cl)n3nc(-c4ccccc4)cc3n2)cc1",
    "target_system": "SW-620 colon",
    "class_name": "yes"
  },
  {
    "compound": "CCc1cnc(=S)n(-c2ccccc2)c1",
    "target_system": "SW-620 colon",
    "class_name": "no"
  },
  {
    "compound": "Cc1ccc(S(=O)(=O)C2=C3C(=C(c4ccccc4)c4ccccc43)CN(S(=O)(=O)c3ccc(C)cc3)C2)cc1",
    "target_system": "SW-620 colon",
    "class_name": "yes"
  }
]
